test system: tetrabenazine-induced sedation and depression in mice; test: Antagonism of tetrabenazine-induced depression in mice orally at 1 hour post-drug; type: in vivo, Carworth CF1 S female mice; conditions: Mus musculus, oral, 1 hour post-drug (30 minutes after tetrabenazine 32 mg/kg intraperitoneally), relief from sedation (exploratory activity), read-out: ED50 for prevention of exploratory loss
Metric name: ED50 (mg/kg)
Please respond with the number in mg/kg and leave the unit unwritten.

[
  {
    "Molecule": "CCC1C2C(CCN1CC)c1ccccc1N2c1ccccc1 (stereo not drawn) [If]",
    "ED50 / mg/kg": 38
  },
  {
    "Molecule": "CN(C)CCC=C1c2ccccc2CCc2ccccc21 [Amitriptyline, amitriptyline, reference compound]",
    "ED50 / mg/kg": 4.7
  },
  {
    "Molecule": "CCN1CCC2c3ccccc3N(c3ccccc3)C2C1C (stereo not drawn) [Ia]",
    "ED50 / mg/kg": 4.2
  },
  {
    "Molecule": "CC(C)N1CCC2c3ccccc3N(c3ccccc3)C2C1C (stereo not drawn) [Id]",
    "ED50 / mg/kg": 19
  },
  {
    "Molecule": "CC1C2C(CCN1C)c1ccccc1N2c1ccccc1 (stereo not drawn) [Ib]",
    "ED50 / mg/kg": 38
  },
  {
    "Molecule": "CCCN1CCC2c3ccccc3N(c3ccccc3)C2C1C (stereo not drawn) [Ic]",
    "ED50 / mg/kg": 38
  },
  {
    "Molecule": "CCC1C2C(CCN1C)c1ccccc1N2c1ccccc1 (stereo not drawn) [Ie]",
    "ED50 / mg/kg": 11.2
  }
]

Kindly consider the entry below.
input: Any idea what ED50 was measured for CC1NCCC2c3ccccc3N(c3ccccc3)C12 (stereo not drawn) [Ig] ?
output: 31
